TGT: T1, M8
T1 construct: also called PD1 mutant M8
METHOD_DESCRIPTION: scFv-phage ELISA
A collection of binders and their measured OD490

| BINDER | REPORTED_MEASUREMENT |
| --- | --- |
| PD1-49A2 (antibody, V domains shown, scFv-phage in the screening ELISA; whole IgG in the other assays; also called Parent 49A2) VH: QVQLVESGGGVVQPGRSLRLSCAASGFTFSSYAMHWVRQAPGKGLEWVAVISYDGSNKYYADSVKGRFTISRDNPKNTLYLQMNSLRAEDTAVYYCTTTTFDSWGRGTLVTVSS VL: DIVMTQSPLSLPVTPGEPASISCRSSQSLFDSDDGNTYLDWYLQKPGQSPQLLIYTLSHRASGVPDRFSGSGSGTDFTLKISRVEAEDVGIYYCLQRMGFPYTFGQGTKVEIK | 3 |

Shift focus to the following entry.
Requested field: OD490. Item: PD1-45D6 (antibody, V domains shown, scFv-phage in the screening ELISA; whole IgG in the other assays) VH: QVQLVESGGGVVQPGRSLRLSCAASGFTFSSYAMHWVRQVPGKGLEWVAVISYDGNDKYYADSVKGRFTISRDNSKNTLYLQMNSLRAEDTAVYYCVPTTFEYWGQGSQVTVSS VL: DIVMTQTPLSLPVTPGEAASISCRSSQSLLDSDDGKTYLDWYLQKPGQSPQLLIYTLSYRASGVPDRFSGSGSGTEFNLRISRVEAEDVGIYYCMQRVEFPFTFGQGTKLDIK
3.8
